pIC50: −log10 of the molar value.
Recorded below: pIC50, system TGF R1 kinase (Homo sapiens, UniProt P36897).
readout_name: pIC50

P: Cc1noc2nc(-c3cccc(Br)c3)nc(Nc3ccncc3)c12
Q: O=C(NCCCN1CCCC1=O)c1cnccc1Nc1nc(-c2cc(Cl)ccc2F)nc2c1CCC2
// query Between the entries labeled P and Q , whose measured pIC50 is lower? To answer, give the label that identifies your chosen option.
// result Q

P: Cc1cnccc1Nc1nc(-c2cc(Cl)ccc2F)nc2c1CN(Cc1ccccc1)CC2
Q: CNCCNC(=O)c1cnccc1Nc1nc(-c2cc(Cl)ccc2F)nc2c1CC(C)(C)C2
// query Between P and Q , which one shows the larger pIC50 value? To answer, give the label that identifies your chosen option.
// result Q
(Q: 5.90, P: 4.79)

* * *

Target: TGF R1 kinase (Homo sapiens, UniProt P36897)
Sequence (P36897 34-503): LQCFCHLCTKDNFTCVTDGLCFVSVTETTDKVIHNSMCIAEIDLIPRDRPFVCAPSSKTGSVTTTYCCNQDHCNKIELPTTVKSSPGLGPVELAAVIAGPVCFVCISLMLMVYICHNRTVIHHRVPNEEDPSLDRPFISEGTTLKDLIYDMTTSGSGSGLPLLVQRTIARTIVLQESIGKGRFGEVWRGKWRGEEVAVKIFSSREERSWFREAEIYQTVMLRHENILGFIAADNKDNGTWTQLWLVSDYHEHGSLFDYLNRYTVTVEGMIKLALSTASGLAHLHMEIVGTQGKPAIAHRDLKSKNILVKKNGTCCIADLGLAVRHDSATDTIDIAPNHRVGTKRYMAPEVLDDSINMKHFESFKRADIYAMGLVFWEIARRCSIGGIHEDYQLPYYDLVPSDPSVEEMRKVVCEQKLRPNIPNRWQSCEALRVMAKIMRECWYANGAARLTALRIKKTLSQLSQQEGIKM
Experiment: TGF-β inhibition assay: phosphorylation of the substrate casein by TGF R1 kinase
Assay type: biochemical
Details: table names no assay; casein assay of Example 2: 2.5 μM ATP, 100 μM casein, 6.4 nM TGF R1 kinase
Method: Invention compounds were tested for their abilities to inhibit the phosphorylation of the substrate casein. The assay was conducted as follows: Compound dilutions and reagents were prepared fresh daily. […] The assay was performed by adding 10 μl of the enzyme to 20 μl of the compound solution. […] The plate was dried, scintillation cocktail was added to each well, and the wells were counted in a Packard TopCount microplate scintillation counter. […]
pIC50: −log10 of the molar value.
readout_name: pIC50

Cc1cnccc1Nc1nc(-c2cc(Cl)ccc2F)nc2c1CCC2 : 7.03
Cc1cnccc1Nc1nc(-c2cc(Cl)ccc2F)nc2c1CCCC2 : 6.60
O=C(NC1CC1)c1cnccc1Nc1nc(-c2cc(Cl)ccc2F)nc2c1CCC2 : 5.87
CCc1noc2nc(-c3cc(Cl)ccc3F)nc(Nc3ccncc3)c12 : 5.87

I: Cc1noc2nc(-c3ccccc3F)nc(Nc3ccncc3)c12
II: Cc1noc2nc(-c3cccc(I)c3)nc(Nc3ccncc3)c12
// query Between the entries labeled I and II , whose measured pIC50 is lower? To answer, give the label that identifies your chosen option.
// result II
(II: 5.61, I: 5.86)
